test: NCI Yeast Anticancer Drug Screen. Data for the sgs1 mgt1 strain (AID 161);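 further: 0% = growth of cultures given vehicle only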; settings: S. cerevisiae sgs1 mgt1 strain, at 5.0 µM (retest, dose inferred, filed as 0.5)
Compounds without any hit were thinned out: in the full panel of roughly 79,000, 15% have a hit. Active and inactive are the calls of the source. No stated cut-off is given here; in the data, active means growth inhibition above about 70%; inactive means the rest.
// classify into class 1 = active, class 0 = inactive

Check out these entries, answers already filled in.
C=C1C(=O)O[C@@H]2CC(CO)=C([C@@H](C)CCCO)[C@@H](OC(=O)/C(C)=C\C)[C@H]12 = class 0
CN(C)CC1CCCCCC(Br)C1=O (stereo unspecified) = class 0

Exercise: Call for entry "CCOCCNc1ncnc2c1cnn2C" :
Key: class 0

Exercise: Call for entry "COc1ccccc1/C=C1\NC(=S)N(/C=C2\C(=O)Oc3ccccc3C2=O)C1=O" :
Key: class 0

Exercise: Call for entry "O=[N+]([O-])c1c(O)cccc1O" :
Key: class 0

Exercise: Call for entry "CCCc1cc(-c2ccc(O)c(CCC)c2)ccc1O" :
Key: class 1

Exercise: Call for entry "COc1ccccc1C1(c2ccccc2OC)OC(=O)c2ccccc21" :
Key: class 0

----------
We begin with a simple list: items and their reported growth inhibition.
assay: NCI Yeast Anticancer Drug Screen. Data for the mec2-1 strain (AID 157); details: S. cerevisiae mec2-1 strain, at 5.0 µM (retest, dose inferred, filed as 0.5), stronger effect = higher value
The panel holds about 79,000 compounds, 15% with a hit somewhere; the sample as a whole holds those more often.
Give a bare numeral; the unit % is implied.

COc1cc(C(c2cc3c(cc2O)OCO3)N2CCN(C(c3cc(OC)c(OC)c(OC)c3)c3cc4c(cc3O)OCO4)CC2)cc(OC)c1OC (stereo unspecified) = -1
CC(CN1CCCCCCC1)C(c1ccccc1)c1ccccc1 (stereo unspecified) = -3

Exercise: Form field: reported growth inhibition of "Oc1cccc2ccc(SSc3ccc4cccc(O)c4n3)nc12"
Key: 100

Exercise: Form field: reported growth inhibition of CCC(c1ccc(O)cc1)C(O)(CC)c1ccc(O)cc1 (stereo unspecified)
Key: -10

Exercise: Form field: reported growth inhibition of "COc1ccc(OC(C)=O)c2c1CCC=CC2=O"
Key: 24

Exercise: Form field: reported growth inhibition of NCC(CS)C(=O)NC(CS)C(=O)NC(CS)C(=O)NCCNc1ccc(NCCNC(=O)C(CS)NC(=O)C(CS)NC(=O)C(CN)CS)c2c1C(=O)c1c(O)ccc(O)c1C2=O (stereo unspecified)
Key: 34

Exercise: Form field: reported growth inhibition of "C(=[CH]/[Sn]([c]1ccccc1)([c]1ccccc1)[c]1ccccc1)/c1ccccc1"
Key: 95

----------
Assay: NCI Yeast Anticancer Drug Screen. Data for the mec2-1 strain (AID 157)
Details: S. cerevisiae mec2-1 strain, at 5.0 µM (retest, dose inferred, filed as 0.5), stronger effect = higher value
Method: Growth inhibition of yeast strains with defined genetic alterations is measured as a screen for potential anti-cancer activity. Selected strains with alterations in DNA damage repair or cell cycle control were exposed to compounds and growth inhibition was measured relative to vehicle treated controls. The strain used in this assay is mec2-1
Compounds without any hit were thinned out: in the full panel of roughly 79,000, 15% have a hit.
recorded-endpoint: growth inhibition (%)
Give a bare numeral; the unit % is implied.

Some compounds with known growth inhibition results, for comparison:
COC(=O)N/N=C(\c1ccc(O)cc1)C(C)C1(O)C(=O)Nc2ccccc21 (configuration not stated) = 6
Cc1cc(N=O)c(NO)cc1C = 16

Exercise: Form field: reported growth inhibition of CC(=O)OCC1OC(N2CCc3cc([N+](=O)[O-])ccc32)C(OC(C)=O)C(OC(C)=O)C1OC(C)=O (configuration not stated)
Key: -19

Exercise: Form field: reported growth inhibition of "CC(=O)N/N=C/c1ccc([N+](=O)[O-])o1"
Key: 2

----------
test: NCI Yeast Anticancer Drug Screen. Data for the rad50 strain (AID 155);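 further: 0% = growth of vehicle-only cultures of the same strain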; conditions: S. cerevisiae rad50 strain growth inhibition; at 50.0 µM
Compounds without any hit were thinned out: in the full panel of roughly 79,000, 15% have a hit. Calls of active or inactive are those of the source. No stated cut-off is given here; in the data, active means growth inhibition above about 70%; inactive means the rest.
// classify into active, inactive

Check out these entries, answers already filled in.
COc1ccc(/C=C(/C#N)c2ccccc2)cc1 = inactive
N#CC1CCC(c2ccccc2)(c2ccccc2)C1=O (stereo unspecified) = active
CCOc1nc(N)nc(C)c1N=Nc1ccc(Br)cc1 = active
CCc1cccc(CC)c1Nc1nc2c(s1)C(=O)c1ccccc1C2=O = active
CCc1[nH]c2ccccc2c1C(c1c(CC)[nH]c2ccccc12)C1CCCCC1=O (stereo unspecified) = active

Now consider a different compound.
Exercise: Call for entry O=C(Cc1ccccc1)OC(C(=O)c1ccccc1)c1ccccc1 (stereo unspecified) :
Key: inactive

----------
assay: NCI Yeast Anticancer Drug Screen. Data for the cln2 rad14 strain (AID 165);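 further: 0% = growth equal to vehicle treated cultures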; settings: S. cerevisiae cln2 rad14 strain, at 50.0 µM
The panel holds about 79,000 compounds, 15% with a hit somewhere; the sample as a whole holds those more often. Active and inactive are the calls of the source. No stated cut-off is given here; in the data, active means growth inhibition above about 70%; inactive means the rest.
// classify into active, inactive

Cc1nc(C(N)=S)sc1/C(CC(=O)C(=O)Nc1cccc2ccc(O)cc12)=N\NC(=O)c1ccncc1 = inactive

Exercise: Call for entry "Cc1ccc2c(n1)C(=O)C=CC2=O" :
Key: inactive

Exercise: Call for entry "CCc1nc(N)nc(N)c1-c1ccc(NCCc2ccccc2)c([N+](=O)[O-])c1" :
Key: inactive

Exercise: Call for entry "COC(=O)c1ccccc1NC(=S)NN(C)C" :
Key: inactive

Exercise: Call for entry CC(C)(Cl)C(Cl)CC/C(CBr)=C(\Cl)CCl (stereo unspecified) :
Key: active

Exercise: Call for entry CCOC(=O)C1(C#N)C(=O)CSC1=Nc1ccccc1Cl (stereo unspecified) :
Key: inactive

Exercise: Call for entry "COc1ccc(N=NC(C(=O)c2ccccc2)C(=O)c2ccccc2)cc1" :
Key: active

Exercise: Call for entry "COC(=O)c1nc(=S)[nH]c(C(=O)OC)c1C(=O)c1c(C)[nH]c2ccccc12" :
Key: inactive

Exercise: Call for entry O=c1[nH]cc(F)c(=O)n1C1CCCCO1 (stereo unspecified) :
Key: inactive

Exercise: Call for entry CC(C)=C1C=C2CCC3C(C)(C(=O)O)CCCC3(C)C2CC1 (stereo unspecified) (tested in a mixture with another compound) :
Key: inactive

Exercise: Call for entry "O=C1OCC/C1=C1/CCOC1" :
Key: active

----------
assay: NCI Yeast Anticancer Drug Screen. Data for the bub3 strain (AID 167); conditions: S. cerevisiae bub3 mutant strain, at 5.0 µM (retest, dose inferred, filed as 0.5), stronger effect = higher value
Compounds without any hit were thinned out: in the full panel of roughly 79,000, 15% have a hit.
recorded-endpoint: growth inhibition (%)
Give a bare numeral; the unit % is implied.

Fc1ccc(NC(=S)SCc2ccc(Cl)c(Cl)c2)c(F)c1 = 11
CCC(=O)C(CC)(c1ccc(OC(C)=O)cc1)c1ccc(OC(C)=O)cc1 = 9
CCCCCCCCCCCc1ccn[nH]1 = 14
CCCCCCCCc1ccc2c3ccccc3c3ccccc3c2c1 = -1
Cc1c2ccnc(-c3ccc(F)cc3)c2cc2c1[nH]c1ccccc12 = -2

Exercise: Form field: reported growth inhibition of "C=Cc1nc(N)nc(-c2ccc(C)cc2)n1"
Key: 6

Exercise: Form field: reported growth inhibition of COc1cccc(C2c3cc4c(cc3OC(NNc3ccccc3)C2C)OCO4)c1OC (configuration not stated)
Key: 4

Exercise: Form field: reported growth inhibition of "C/C(=N/NC(=S)NCc1ccccc1)c1ncccn1"
Key: -23

Exercise: Form field: reported growth inhibition of "COc1ccc(C2=NN(c3ccccc3)C[N+](c3ccc(OC)cc3)=N2)cc1"
Key: -10

Exercise: Form field: reported growth inhibition of "CCCN(CCC)C(=S)N/N=C/c1cccc(C)n1"
Key: -32

Exercise: Form field: reported growth inhibition of "O=C(O/N=C(/Cc1ccccc1)c1ccccc1)c1ccccc1"
Key: -17

Exercise: Form field: reported growth inhibition of "CC(=O)c1ccc2sc3ccccc3c2c1"
Key: -51

----------
test: NCI Yeast Anticancer Drug Screen. Data for the mlh1 rad18 strain (AID 175); details: S. cerevisiae mlh1 rad18 strain growth inhibition; at 50.0 µM (retest, dose inferred, filed as 5.0); stronger effect = higher value
The panel holds about 79,000 compounds, 15% with a hit somewhere; the sample as a whole holds those more often.
We begin with a simple list: items and their reported growth inhibition.
Give a bare numeral; the unit % is implied.

Some molecules with known growth inhibition results, for comparison:
CN1CCS(=O)(=O)C1=O = 63
C=CCc1cccc(/C=N\N=C(/N)NO)c1O = 42
CC1(C)CC(O)C(O)C1 (stereo unspecified) = -4
O=C1C(=O)C(CCCO)(CCCO)CCCCCCCCC1(CCCO)CCCO = 0
CCOP(=O)(OCC)/C(C#N)=C/c1coc2cc(C)cc(C)c2c1=O = 99
Nc1cc(=O)[nH]c(=S)[nH]1.[Pd] = -4
Cc1c(N=Nc2ccc(Cl)cc2)c(-c2ccccc2)n(C2OC(CO)C(O)C(O)C2O)c(=S)c1C#N (stereo unspecified) = 96
CN(C)c1ccc(/C=C(/C#N)c2ccc(Cl)cc2)cc1 = -18
O=C(c1c(F)c(F)c(F)c(F)c1F)N1CCN(C(=O)c2c(F)c(F)c(F)c(F)c2F)C1=S = 92
Cc1c(N2CCCC2)cc2c(c1NC(=O)c1ccccc1Cl)C(C)(C)CC2(C)C = 91

Consider the additional molecule presented here.
Exercise: Form field: reported growth inhibition of "COC(=O)C(=C(c1ccccc1)c1ccccc1)c1ccccc1"
Key: 7
